Test system: NCI-H226 lung
Assay: NCI tumour cell line growth inhibition, 48 h
I would appreciate it if you labelled entries Criterion met when TGI is 8 µM or higher, otherwise Criterion not met.

stdin: Could you please find out whether COC(=O)Cc1cc(=O)n2c3ccccc3n(C)c2c1C#N has TGI that meets 8 µM or exceeds it?
stdout: Criterion met

stdin: TGI >= 8 µM for S=c1ncc(-c2cncc(-c3cnc(=S)[nH]c3)n2)c[nH]1 ?
stdout: Criterion met

stdin: Evaluate COC(=O)c1c(C)nc(C)c2c1C(=O)C(Br)=C(NCc1ccccc1)C2=O : TGI at minimum 8 µM?
stdout: Criterion met

stdin: Confirm if TGI reported for the compound CC(C)c1ccc(O)c(Cc2cc(C(C)C)cc(Cc3cc(C(C)C)ccc3O)c2O)c1 is 8 µM or above.
stdout: Criterion not met

stdin: Record O=c1ccc(N=Nc2ccccc2)ccc1O ; criterion: TGI no lower than 8 µM. Met?
stdout: Criterion met

stdin: Reported TGI at or above 8 µM? ClC1=NSSC1(Cl)Cl
stdout: Criterion met

stdin: Could you verify whether the entry CCOC(=O)C(C)c1nc2cc(F)c(F)cc2[nH]c1=O (stereo not given) shows TGI of no less than 8 µM?
stdout: Criterion met

stdin: Textbook exercise: given the entry O=C(Nc1cccc(-n2ccc3c(NC(=O)c4ccccc4)ncnc32)c1)Nc1ccc(Cl)c(C(F)(F)F)c1 , state whether its TGI is greater than or equal to 8 µM.
stdout: Criterion met

stdin: Given OCCc1ccsc1-c1sc(-c2cc(CCO)c(-c3sc(-c4cc(CCO)c(-c5sccc5CCO)s4)cc3CCO)s2)cc1CCO , state whether its TGI is at least 8 µM.
stdout: Criterion not met

###

Would you mind telling me the reported GI50 of each entry?
Test system: OVCAR-3 ovarian
Test: NCI tumour cell line growth inhibition, 48 h

So, CCCCCCCCCCCC/C=C\CC[C@@H](O)[C@H](O)CC[C@H](O)[C@@H]1CC[C@@H](CCCCCCCC2=C[C@H](C)OC2=O)O1 ? Its GI50 was 0.434 µM

Entry under test: COc1cc(-c2nc(-c3ccccc3)c(-c3ccccc3)[nH]2)cc(OC)c1O . Its GI50 was 18.3 µM

Per the records, this compound ( CCCN1C(=O)/C(=C/c2ccc(SC(F)(F)F)cc2)SC1=Nc1ccc(OC)cc1 ) has GI50 equal to 13.5 µM

COc1cc(C2CC(c3ccccc3)=NN2C=O)ccc1Oc1ccnc2cc(Cl)ccc12 (stereo not given) yielded GI50 of 18.6 µM

Query Cn1cc(-c2cc(-c3cn(C)c4ccccc34)[nH]n2)c2ccccc21 yields GI50 of 28.4 µM

###

Test system: MALME-3M melanoma
Test: NCI tumour cell line growth inhibition, 48 h
REPORTED_PROPERTY: TGI

Noted for CCOP1(=O)CC(C)=C(Cl)C(OC)C1 (stereo unspecified) : its TGI reads > 100 µM

The value of TGI measured for the molecule O=C(/C=C/c1ccc(-c2ccccc2)cc1)NCc1ccc(C(=O)NCCc2ccccc2)cc1 turned out to be > 100 µM

So for C=CCNC(=S)NNC(=O)c1c(C)nc2sccn12 , the logged TGI turned out to be > 100 µM

# TGI (molecule: S=c1ssnc1-c1cc2ccccc2o1 ) is 46.8 µM

Summary for this molecule, [CH3][Sn]([CH3])([CH3])[S]C(=S)N1CCOCC1 : TGI is 14.8 µM

Entry O=C1C(Cl)=C(Nc2ccc(S(=O)(=O)c3ccc(NC4=C(Cl)C(=O)c5ccccc5C4=O)cc3)cc2)C(=O)c2ccccc21 ; TGI = 3.88 µM

Given item CC(=O)O[C@H]1[C@@H](N2CCOCC2)C[C@H]2[C@@H]3CC=C4C[C@@H](N5CCCC5)CC[C@]4(C)[C@H]3CC[C@@]21C , the value recorded as its TGI is > 100 µM

Value of measured TGI for the entry Cc1cc(C)c2nc3c(c(C(O)C4CCCCN4)c2c1)CC/C3=C\c1ccc(Cl)cc1 (stereo unspecified) : > 100 µM

Documented TGI of O=C(C[N+]12CN3CN(CN(C3)C1)C2)c1ccc(-c2ccccc2)cc1 : 39.3 µM

// sample Cc1cc(NCCCCCCCNc2cc(C)nc3cc(N)ccc23)c2ccc(N)cc2n1 , its TGI was > 100 µM

The molecule listed as O=C(Nc1ccn(C2CC(O)C(COC(c3ccccc3)(c3ccccc3)c3ccccc3)O2)c(=O)n1)c1ccccc1 (stereo unspecified) has a reported TGI of 5.89 µM

Looking up CC(C)(C)OC(=O)Cn1ncn(NC(=O)Cc2ccccc2)c1=S , I found its TGI recorded as > 10 µM

The molecule identified as CCN(CC)c1ccc(/C=N/NC(=O)Cc2ccc(Nc3ccnc(C(F)(F)F)c3)cc2)c(O)c1 registered its TGI at > 26 µM

Note to self: TGI recorded for NC(CCC(=O)c1ccccn1)C(=O)O (stereo unspecified) was > 100 µM

Recorded result, N=C(N)c1ccc2oc3ccc(C(=N)N)cc3c(=O)c2c1 , TGI: > 100 µM

TGI reading for COc1cc2c(c(OC)c1OC)C(=O)c1c(O)cc(C)c(OC)c1C2=O : > 100 µM

TGI for CCN(CC)CCOC(COc1cc(C)cc(C)c1)COc1cc(C)cc(C)c1 is 3.86 µM

get_value(item= CC(=O)N[C@@H](Cc1ccc(O)cn1)C(=O)NCc1ccc(Cl)cc1 , readout=TGI) returns > 100 µM

GET /value?item= O=S(=O)(c1ccccc1)N1CCCC(c2ccccc2)CC1 (stereo unspecified) &field=TGI returns > 100 µM

Entry CCOC(=O)c1ccc(N(CCOS(C)(=O)=O)CCOS(C)(=O)=O)cc1 — recorded TGI = > 100 µM

Memo: O=c1cc(-c2cccc(OC(F)(F)F)c2)[nH]c2ccc(N3CCCC3)cc12 , reported TGI: > 100 µM
